Source of measurements: patent US20230091175A1

Hi there, I'd appreciate the recorded KD ratio for every entry that follows.
Molecular target: T1, interleukin 8 (CXCL8) (100-175: Shenandoah Biotechnology, Inc.) (UniProt P10145 28-99)
T1 construct: the antibodies tested are mouse anti-human IL-8 antibodies; also called IL-8
T1 sequence (looked up): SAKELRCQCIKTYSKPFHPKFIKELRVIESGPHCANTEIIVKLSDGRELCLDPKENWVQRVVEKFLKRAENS
Assay: SPR (Biacore 8K); affinity ratio with the original antibody as 1.0

Per the record, mouse anti-human IL-8 antibody (clone 146-1), original (unmodified) (Fab, V domains shown, not shown: a dimerising Fc or GST, Fab; the light entry holds only the variable domain; a His tag is implied by Ni-NTA purification but not described; also called Anti-IL-8 antibody (clone 146-1)) VH: EVQLVESGGGLVKPGGSLKLSCAASGFTFSSYAMSWVRQTPEKRLEWVATISNGGSYTYYPDSLKGRFTISRDNAKNTLYLQMSSLRSEDTAIYYCARGITGGVYFDYWGQGTTLTVSS VL: DIQMTQSPASLSASVGETVTITCRASENIYSYLAWYQQKQGKSPHLLVYDAETLAEGVPSRFSGSGSGTQFSLKINSLQPEDFGSYYCQHHYGTPWTFGGGTKLEIKR has KD ratio of 1

Per the record, R5 variant of anti-IL-8 antibody (clone 166-1) (Fab, V domains shown, not shown: a dimerising Fc or GST, Light chain positions 63, 65, 67, 70, 72 (Chothia) changed to Arg; Fab) VH: EVKLVESGGGLVKPGGSLKLSCAASGFTFNNYAMSWVRQTPEKRLEWVASISSGGNTYYPDSVKGRFTLSRDNARNILYLQMSRLRSEDTAMYYCARDKLRLPNWYFDVWGAGTTVTVSS VL: DIVLTQSPPSLAVSLGQRATISCKASQSVDYDGDSYMNWYQQKPGQPPKVLIYGASNLESGIPARFRGRGRGTRFRLNIYPVEEEDAATYYCQQSNEDPPTFGGGTKLEIKR has KD ratio of 4.2

Per the record, R3 variant of anti-IL-8 antibody (clone 146-1) (Fab, V domains shown, not shown: a dimerising Fc or GST, Light chain positions 63, 65, 67 (Chothia) changed to Arg; Fab) VH: EVQLVESGGGLVKPGGSLKLSCAASGFTFSSYAMSWVRQTPEKRLEWVATISNGGSYTYYPDSLKGRFTISRDNAKNTLYLQMSSLRSEDTAIYYCARGITGGVYFDYWGQGTTLTVSS VL: DIQMTQSPASLSASVGETVTITCRASENIYSYLAWYQQKQGKSPHLLVYDAETLAEGVPSRFRGRGRGTQFSLKINSLQPEDFGSYYCQHHYGTPWTFGGGTKLEIKR has KD ratio of 2.6
